Sourced from PubChem BioAssay AID1159580

Assay: chemical genetic growth profiling, strain panel (AID 1159580);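 note: tested at 20 µM; growth read once vehicle control cultures reached saturation at 30 °C; 1 = growth at the plate median or of vehicle wells; lower values mean less growth of the strain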
Settings: S. cerevisiae deletion strains, growth OD, locus YGR135W, strain pre9, active compounds read low
About 2,000 (36%) of roughly 5,500 compounds were called active. Inconclusive results (about 18%) are left out. Some of the results follow. Where a SMILES comes first, the peptide text is derived from it.
Reported values of normalized growth for individual entries
Returns: the value as a bare number; no unit string appended.

Prompt line: Name the recorded normalized growth for COc1cc(S(C)=O)ccc1-c1nc2ncccc2[nH]1 (centres undefined) .
Response line: 0.983

Prompt line: Need normalized growth, item NC(N)=NCCCC(NC(=O)C(N)Cc1ccc(O)cc1)C(=O)O (centres undefined)
Response line: 1

Prompt line: Can you look up the measured normalized growth of CN[C@@H]1[C@H](OC2[C@H](O[C@H]3[C@H](O)[C@@H](O)[C@H](N=C(N)N)[C@@H](O)[C@@H]3N=C(N)N)O[C@@H](C)[C@]2(O)C=O)O[C@@H](CO)[C@H](O)[C@H]1O (some centres undefined) for me?
Response line: 1.01

Prompt line: Looking for the measured normalized growth of `Nc1cc(-c2ccncc2)c[nH]c1=O` , can you help?
Response line: 0.945

Prompt line: # get_value(readout='normalized growth', item= CC(=O)O[C@H]1CC[C@]2(C)C3=CC(=O)[C@@]4(C)C(C[C@@H]5OC6(OCC(C)CC6Br)[C@@H](C)[C@@H]54)C3CC[C@H]2C1 (some centres undefined) )
Response line: 0.973

Prompt line: Quick one: normalized growth for NCCCCC(N)C(=O)NC(Cc1ccc(O)cc1)C(=O)NC(CCCCN)C(=O)O (stereo not drawn) (H-Lys-Tyr-Lys-OH; configuration not given here) ?
Response line: 0.999

Prompt line: Field request: normalized growth | item: `Nc1ccncc1`
Response line: 0.971

Prompt line: What does the record list as normalized growth for Cc1cc(C)cc(OCC2CNC(=O)O2)c1 (centres undefined) ?
Response line: 0.998

Prompt line: Any idea what normalized growth was measured for `NC(N)=NCCC[C@@H](NC(=O)[C@@H](N)Cc1ccc(O)cc1)C(=O)O` ?
Response line: 1.01

----------
Assay: chemical genetic growth profiling, strain panel (AID 1159580);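 note: tested at 20 µM; growth read once vehicle control cultures reached saturation at 30 °C; 1 = growth at the plate median or of vehicle wells; lower values mean less growth of the strain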
Conditions: S. cerevisiae deletion strains, growth OD, locus YGL248W, strain PDE1, active compounds read low
In all, about 5,500 compounds went through this assay and about 2,000 (36%) were called active. Another 18% or so got no clear call; they are omitted. The list shows a part of the results.
recorded_metric: normalized growth
Just the number, please, no unit after it.

Sample records with normalized growth:
Prompt line: Give its normalized growth value. Item: `N[C@H](Cc1cc(I)c(Oc2ccc(O)c(I)c2)c(I)c1)C(=O)O`
Response line: 0.998

Prompt line: So what's the measured normalized growth for this one? `CCCCC[C@H](CC(=O)NO)C(=O)N[C@H](C(=O)N1CCC[C@H]1CO)C(C)C`
Response line: 1.02

Prompt line: // normalized growth lookup, key: `O=C(O)Cc1cc(I)c(Oc2cc(I)c(O)c(I)c2)c(I)c1`
Response line: 0.965

Prompt line: Look up normalized growth for this compound: `N[C@@H](Cc1cc(I)c(Oc2cc(I)c(O)c(I)c2)c(I)c1)C(=O)O`
Response line: 1.02

Others:
Prompt line: Query (compound): NC(Cc1ccc(F)cc1)C(=O)O (stereo unspecified) ; field requested: normalized growth
Response line: 1.02

Prompt line: normalized growth for `C=C[C@H]1CN2CC[C@H]1C[C@@H]2[C@H](O)c1ccnc2ccccc12` ?
Response line: 0.994
